Parameter: ADCC reporter Top (MFI). Scope: all listed entries.
# tgt: T1, human SLC34A2 (human, UniProt O95436 1-690)
# T1 sequence (looked up): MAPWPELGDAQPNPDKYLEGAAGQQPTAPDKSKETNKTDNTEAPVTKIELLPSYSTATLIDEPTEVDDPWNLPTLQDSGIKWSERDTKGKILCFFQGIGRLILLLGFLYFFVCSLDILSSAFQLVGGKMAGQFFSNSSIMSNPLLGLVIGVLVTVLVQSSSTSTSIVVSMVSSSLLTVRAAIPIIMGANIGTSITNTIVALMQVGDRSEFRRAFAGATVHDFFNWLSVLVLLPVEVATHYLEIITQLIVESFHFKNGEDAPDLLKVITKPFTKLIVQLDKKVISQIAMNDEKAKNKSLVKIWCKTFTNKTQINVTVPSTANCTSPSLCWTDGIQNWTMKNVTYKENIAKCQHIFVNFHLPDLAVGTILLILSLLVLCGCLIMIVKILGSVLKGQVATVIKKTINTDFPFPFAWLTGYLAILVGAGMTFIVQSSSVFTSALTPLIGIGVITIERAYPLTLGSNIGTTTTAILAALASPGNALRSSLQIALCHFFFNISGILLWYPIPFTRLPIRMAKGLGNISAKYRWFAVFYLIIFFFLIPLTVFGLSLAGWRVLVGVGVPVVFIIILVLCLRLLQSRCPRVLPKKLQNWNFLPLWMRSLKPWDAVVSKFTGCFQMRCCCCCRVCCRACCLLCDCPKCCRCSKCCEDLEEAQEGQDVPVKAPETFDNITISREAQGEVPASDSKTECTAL
# assay-protocol: cell-based or functional assay

| binder | ADCC reporter Top (MFI) |
| --- | --- |
| xi87H12B7 hIgG1 (antibody, V domains shown, chimeric, hIgG1) VH: QVQLQQPGAEVVRPGASVKMSCKASGYTFTSYIVHWVKQPPGQGLEWIGAIYPGNGDTSYIQKFKGRATLTADKSSSTVYMQLSSLTSEDSAVYYCARGHYYGSAAWFGFWGQGTLVTVSA VL: DILLTQSPAILSVSPGERVSFSCRASQNIGTSIHWYQQRTNDSPRLLMRYASESVSGIPSRFSGSGSGTDFTLSINSVESEDIADYYCQQSNTWPLTFGAGTKLELK | 195000 |
| xi94E9B12 hIgG1 (antibody, V domains shown, chimeric, hIgG1) VH: QVQLQQPGAELVKPGASVKMSCKASGYTFTSYNMQWVKQTYGQGLEWIGAISPGSGETSYNQNFKVKATLTADKISSTAYMQLSSLTSEDSAVYYCARAARAEGWFAYWGQGTLVTVSA VL: DIVMTQSHKFMSTSVGDRVSITCKASQDVGHAVVWYQQKPGQFPKLLIYWASTRHAGVPDRFTGSGSGTDFTLTISNVQSEDLADYFCQQFRSIPLTFGSGTKLEIK | 382000 |
| xi94B10A8 hIgG1 (antibody, V domains shown, chimeric, hIgG1) VH: QVQLQQTGAELVKPGASVKMSCKASGYTFTGYIIHWIKQRPGQGLEWIGAIYPGNGDTSYNQKIKGRATLTADKSSTTAYMQLSSLTSEDSAVYYCARGDYGNPAWFAYWGQGTLVTVSA VL: DVVLTQSPATLSVTPGDRVSLSCRASQSISNYLYWYQQKAHESPRLLIKFASQSISGIPSRFRGSGSGTDFTLSINSVETEDFGMYFCQQSNKWPLTFGAGTKLELK | 486000 |
| xi69B11D8 hIgG1 (antibody, V domains shown, chimeric, hIgG1) VH: EVQLQQSGPELVKPGAAVKISCKTSGYTFTDYTMHWVRQSHGKSLEWIGGIHPNNGGTGYNQKLRGKATLTVDKSSSTAYMELRSLTSDDSAVYYCARGRESDGWFTYWGQGTLVTFSA VL: DVHMTQTTSSLSASLGDRVTITCSASQGIGNSLNWYQQQPDGTVKLLIYYTSRLHSGVPSRFSGSGSGTDYSLTISNLEPEDLATYYCQQYSRFPPTFGGGTKLEIK | 216000 |
| xi71F7D4 hIgG1 (antibody, V domains shown, chimeric, hIgG1) VH: DVKLVESGGDLVKLGGSLKLSCAASGFTFSNYYMSWVRQTPEKRLELVAVINSNGGTTYYPDNMKGRFTISRDNAKNTLYLQTSSLKSEDTALYYCGRHEHYYGTNIAWFAYWGQGTLVTVSA VL: DIVMTQSHKFMSTSVGDRVSITCKASQDVTTAVAWYQQKPGQSPKLLIYWASTRHTGVPDRFTGSGSGTDHTLTISSVQAEDLALYYCQQHYSTPVTFGGGTKLEIK | 247000 |

Source of measurements: patent US20240301052A1
